Field: Relative Potentiation for GABAA1. Provide a value for each of the compounds that follow.
# target: GABAA receptor α1β2γ2 (Homo sapiens, UniProt P14867+P18507)
# Construct: expressed in transfected cells; host or cells: Xenopus laevis oocytes injected with cRNA
# Sequence (P14867 28-456): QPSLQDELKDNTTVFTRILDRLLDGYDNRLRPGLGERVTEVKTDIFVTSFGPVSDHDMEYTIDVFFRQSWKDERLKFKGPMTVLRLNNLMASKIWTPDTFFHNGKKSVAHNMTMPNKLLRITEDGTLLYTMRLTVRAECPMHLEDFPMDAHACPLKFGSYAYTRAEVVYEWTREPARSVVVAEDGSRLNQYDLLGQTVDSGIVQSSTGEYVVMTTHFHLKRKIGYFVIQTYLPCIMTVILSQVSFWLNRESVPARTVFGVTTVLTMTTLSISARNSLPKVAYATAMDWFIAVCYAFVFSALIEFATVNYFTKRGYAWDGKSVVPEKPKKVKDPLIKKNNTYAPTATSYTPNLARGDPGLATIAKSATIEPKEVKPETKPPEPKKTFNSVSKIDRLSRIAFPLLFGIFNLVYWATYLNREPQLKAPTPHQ
# Sequence (P47870 25-512 partner limits assumed): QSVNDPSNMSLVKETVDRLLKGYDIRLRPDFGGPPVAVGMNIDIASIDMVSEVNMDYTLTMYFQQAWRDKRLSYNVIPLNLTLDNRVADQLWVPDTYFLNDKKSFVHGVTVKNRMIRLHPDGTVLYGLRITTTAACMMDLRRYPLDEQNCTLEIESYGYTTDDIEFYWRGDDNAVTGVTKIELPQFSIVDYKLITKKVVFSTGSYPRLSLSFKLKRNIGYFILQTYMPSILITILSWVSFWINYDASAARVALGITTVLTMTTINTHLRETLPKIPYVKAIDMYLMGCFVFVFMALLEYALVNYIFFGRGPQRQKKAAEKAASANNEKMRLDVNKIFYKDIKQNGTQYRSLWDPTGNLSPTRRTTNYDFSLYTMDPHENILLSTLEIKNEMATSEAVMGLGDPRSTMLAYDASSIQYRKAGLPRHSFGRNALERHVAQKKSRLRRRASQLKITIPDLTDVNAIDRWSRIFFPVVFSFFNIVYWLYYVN
# Sequence (P18507 40-475): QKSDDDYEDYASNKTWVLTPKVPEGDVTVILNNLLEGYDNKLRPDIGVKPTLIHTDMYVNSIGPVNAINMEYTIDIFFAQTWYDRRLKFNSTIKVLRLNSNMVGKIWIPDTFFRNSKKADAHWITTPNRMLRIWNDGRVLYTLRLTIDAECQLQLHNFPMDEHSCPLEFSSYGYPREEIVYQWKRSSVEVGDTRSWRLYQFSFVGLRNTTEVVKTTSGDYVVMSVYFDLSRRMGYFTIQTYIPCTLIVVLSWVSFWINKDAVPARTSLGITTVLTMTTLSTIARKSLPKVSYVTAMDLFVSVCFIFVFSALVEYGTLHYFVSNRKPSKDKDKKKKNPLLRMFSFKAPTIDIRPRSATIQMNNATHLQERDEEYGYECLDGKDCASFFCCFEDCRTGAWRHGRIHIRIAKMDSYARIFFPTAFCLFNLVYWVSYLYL
# measurementNotes: Two-electrode voltage-clamp potentiation of GABA EC10 current in Xenopus oocytes, GABAA1
# Type: cell-based
# assayContext: percentage potentiation of GABA EC10 current divided by that of diazepam

Consider the worked cases shown below.
>  <structureAsSmiles>
CCCN1Cc2nc3c(-c4cc(C)cnc4F)cccc3c(N)c2C1=O

>  <Relative Potentiation for GABAA1>
0.33

$$$$
>  <structureAsSmiles>
CCN1Cc2nc3c(-c4ccc(OC)cc4F)cccc3c(N)c2C1=O

>  <Relative Potentiation for GABAA1>
−0.008

$$$$
>  <structureAsSmiles>
COc1cccc(Cl)c1-c1c(F)ccc2c(N)c3c(nc12)CN(C1CC1)C3=O

>  <Relative Potentiation for GABAA1>
−0.15

$$$$
>  <structureAsSmiles>
COc1ccc(CN2Cc3nc4c(-c5cc(F)ccc5OC)cccc4c(N)c3C2=O)cc1

>  <Relative Potentiation for GABAA1>
0.39

$$$$
>  <structureAsSmiles>
COc1ccc(C)cc1-c1cccc2c(N)c3c(nc12)CN(Cc1ccc2c(c1)OCO2)C3=O

>  <Relative Potentiation for GABAA1>
0.22

$$$$

Hi team, please reply with Relative Potentiation for GABAA1 for each item in this list.
1. CCCN1Cc2nc3c(-c4cccnc4C)cccc3c(N)c2C1=O
2. COc1cc(-c2cccc3c(N)c4c(nc23)CN(C2CCC2)C4=O)c(OC)nn1
3. CCCN1Cc2nc3c(-c4ccc(OC)cc4OC)cccc3c(N)c2C1=O
4. COc1ccc(C)cc1-c1c(F)ccc2c(N)c3c(nc12)CN(C1CC1)C3=O
5. Nc1c2c(nc3c(-c4ccccn4)cccc13)CN(C1CCC1)C2=O
6. CCN1Cc2nc3c(-c4ccc(OC)c(OC)c4)cccc3c(N)c2C1=O
7. CCN1Cc2nc3c(-c4ccc(F)c(OC)c4)cccc3c(N)c2C1=O
8. CCCN1Cc2nc3c(-c4cccnc4OC)cccc3c(N)c2C1=O

Found:
0.22
0.088
0.25
0.23
0.061
0.07
0.09
0.36

Hi team, please reply with Relative Potentiation for GABAA1 for each item in this list.
1. CCN1Cc2nc3c(-c4cnccc4C)cccc3c(N)c2C1=O
2. CCCN1Cc2nc3c(-c4ccccc4C#N)cccc3c(N)c2C1=O
3. CCCN1Cc2nc3c(-c4ccccc4)cccc3c(N)c2C1=O
4. CCCN1Cc2nc3c(-c4ccc5ncccc5c4)cccc3c(N)c2C1=O
5. COc1ccc(CN2Cc3nc4c(-c5c(F)cccc5OC)cccc4c(N)c3C2=O)cc1
6. COc1ccc(-c2c(F)ccc3c(N)c4c(nc23)CN(C2CCC2)C4=O)cc1OC
7. COc1cccc(C#N)c1-c1cccc2c(N)c3c(nc12)CN(C1CCC1)C3=O

Found:
1. 0.08
2. 0.15
3. 0.51
4. 0.29
5. −0.034
6. 0.083
7. −0.043

Lookup: Which Relative Potentiation for GABAA1 is reported with GABAA receptor α1β2γ2 (Homo sapiens, UniProt P14867+P18507) for this entry: CCCN1Cc2nc3c(-c4cc(F)ccc4F)cccc3c(N)c2C1=O ?
Found: 0.21

---

# target: GABAA receptor α1β2γ2 (Homo sapiens, UniProt P14867+P18507)
# Construct: expressed in transfected cells; host or cells: Xenopus laevis oocytes injected with cRNA
# measurementNotes: Two-electrode voltage-clamp potentiation of GABA EC10 current in Xenopus oocytes, GABAA1
# Type: cell-based
# assayContext: percentage potentiation of GABA EC10 current divided by that of diazepam
Field: Relative Potentiation for GABAA1. Provide a value for each of the compounds that follow.
Give bare numbers.

Consider the worked cases shown below.
>  <structureAsSmiles>
Nc1c2c(nc3c(-c4nccnc4F)cccc13)CN(C1CCC1)C2=O

>  <Relative Potentiation for GABAA1>
−0.03

$$$$
>  <structureAsSmiles>
COc1ccc(-c2cccc3c(N)c4c(nc23)CN(Cc2ccc(OC)c(OC)c2)C4=O)c(C)n1

>  <Relative Potentiation for GABAA1>
0.26

$$$$
>  <structureAsSmiles>
CCCN1Cc2nc3c(-c4cc(C)ccc4OC)cccc3c(N)c2C1=O

>  <Relative Potentiation for GABAA1>
0.17

$$$$
>  <structureAsSmiles>
COc1ccc(CN2Cc3nc4c(-c5ccc(F)cc5OC)cccc4c(N)c3C2=O)cc1

>  <Relative Potentiation for GABAA1>
0.22

$$$$
>  <structureAsSmiles>
COc1ccncc1-c1c(F)ccc2c(N)c3c(nc12)CN(C1CC1)C3=O

>  <Relative Potentiation for GABAA1>
0.13

$$$$
>  <structureAsSmiles>
COc1ccc(CN2Cc3nc4c(-c5cccnc5OC)cccc4c(N)c3C2=O)cc1

>  <Relative Potentiation for GABAA1>
0.12

$$$$

Hi team, please reply with Relative Potentiation for GABAA1 for each item in this list.
1. COc1ccc(F)cc1-c1cccc2c(N)c3c(nc12)CN(C1CCC1)C3=O
2. COc1ccc(F)c(-c2cccc3c(N)c4c(nc23)CN(C2CCC2)C4=O)c1
3. COc1cccc(F)c1-c1cccc2c(N)c3c(nc12)CN(C(C)C)C3=O
4. CCCN1Cc2nc3c(-c4cnc(OC)cc4C)cccc3c(N)c2C1=O

Found:
[0.066, 0.1, "−0.16", 0.17]

---

# target: GABAA receptor α1β2γ2 (Homo sapiens, UniProt P14867+P18507)
# Construct: expressed in transfected cells; host or cells: Xenopus laevis oocytes injected with cRNA
# measurementNotes: Two-electrode voltage-clamp potentiation of GABA EC10 current in Xenopus oocytes, GABAA1
# Format: cell-based
# assayContext: percentage potentiation of GABA EC10 current divided by that of diazepam
Response field label takes 1.0 when Relative Potentiation for GABAA1 is strictly below 0.09 and 0.0 in all other cases.

>  <molecule>
COc1cnccc1-c1cccc2c(N)c3c(nc12)CN(C1CCC1)C3=O

>  <target>
GABAA receptor α1β2γ2 (Homo sapiens, UniProt P14867+P18507)

>  <classLabel>
0.0

$$$$
>  <molecule>
Cc1nn(C)cc1-c1cccc2c(N)c3c(nc12)CN(C1CCC1)C3=O

>  <target>
GABAA receptor α1β2γ2 (Homo sapiens, UniProt P14867+P18507)

>  <classLabel>
1.0

$$$$
>  <molecule>
CCCN1Cc2nc3c(-c4cc(OC)cc(OC)c4)cccc3c(N)c2C1=O

>  <target>
GABAA receptor α1β2γ2 (Homo sapiens, UniProt P14867+P18507)

>  <classLabel>
0.0

$$$$

Lookup: Criterion: Relative Potentiation for GABAA1 strictly below 0.09. Is it met by CCCN1Cc2nc3c(-c4ccc(OC)cc4F)cccc3c(N)c2C1=O ?
Found: 0.0

Lookup: # repeat for Cc1nn(C)cc1-c1c(F)ccc2c(N)c3c(nc12)CN([C@@H]1CCOC1)C3=O [Example 97]
Found: 0.0

Lookup: # repeat for Nc1c2c(nc3c(-c4ccccc4F)cccc13)CN(C1CCC1)C2=O [Example 124]
Found: 1.0

Lookup: # repeat for Cc1ccncc1-c1cccc2c(N)c3c(nc12)CN(C1CCC1)C3=O
Found: 1.0

Lookup: # repeat for CCN1Cc2nc3c(-c4ccc(OC)cc4OC)c(F)ccc3c(N)c2C1=O
Found: 1.0

Lookup: # repeat for N#Cc1ccccc1-c1cccc2c(N)c3c(nc12)CN(C1CC1)C3=O
Found: 1.0

---

# target: GABAA receptor α2β3γ2 (Homo sapiens, UniProt P18507+P47869)
# Construct: expressed in transfected cells; host or cells: Xenopus laevis oocytes injected with cRNA
# Sequence (P47869 29-451, one chain of several): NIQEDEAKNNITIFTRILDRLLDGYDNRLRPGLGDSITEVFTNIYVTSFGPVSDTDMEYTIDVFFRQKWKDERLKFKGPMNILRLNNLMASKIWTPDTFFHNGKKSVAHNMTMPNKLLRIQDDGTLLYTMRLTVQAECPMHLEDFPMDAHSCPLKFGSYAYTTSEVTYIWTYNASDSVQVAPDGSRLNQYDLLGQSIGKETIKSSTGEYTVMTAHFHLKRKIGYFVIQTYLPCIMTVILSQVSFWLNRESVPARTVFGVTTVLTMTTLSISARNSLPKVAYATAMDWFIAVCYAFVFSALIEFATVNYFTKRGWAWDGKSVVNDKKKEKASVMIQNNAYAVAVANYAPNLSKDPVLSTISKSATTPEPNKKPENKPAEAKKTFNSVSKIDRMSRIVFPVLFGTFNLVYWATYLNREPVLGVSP
# Sequence (P28472 26-473 partner, one chain of several): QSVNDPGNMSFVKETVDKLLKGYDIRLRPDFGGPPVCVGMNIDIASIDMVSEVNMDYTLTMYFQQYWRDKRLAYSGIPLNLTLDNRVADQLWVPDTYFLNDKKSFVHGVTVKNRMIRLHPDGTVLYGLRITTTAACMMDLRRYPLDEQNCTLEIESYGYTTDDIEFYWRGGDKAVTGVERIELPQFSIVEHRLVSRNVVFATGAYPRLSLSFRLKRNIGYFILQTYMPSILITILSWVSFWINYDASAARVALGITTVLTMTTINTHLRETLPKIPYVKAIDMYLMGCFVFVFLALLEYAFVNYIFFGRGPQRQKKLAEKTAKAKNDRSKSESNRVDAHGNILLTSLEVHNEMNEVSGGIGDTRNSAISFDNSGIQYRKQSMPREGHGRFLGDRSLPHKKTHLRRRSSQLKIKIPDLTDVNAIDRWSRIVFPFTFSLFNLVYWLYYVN
# measurementNotes: Two-electrode voltage-clamp potentiation of GABA EC10 current in Xenopus oocytes, GABAA2
# Assay type: cell-based
# assayContext: percentage potentiation of GABA EC10 current divided by that of diazepam
readout: Relative Potentiation for GABAA2
Numbers only.

>  <compound>
CCCN1Cc2nc3c(-c4ccc(OC)cc4OC)cccc3c(N)c2C1=O

>  <target>
GABAA receptor α2β3γ2 (Homo sapiens, UniProt P18507+P47869)

>  <Relative Potentiation for GABAA2>
0.31

$$$$
>  <compound>
Nc1c2c(nc3c(-c4ccccc4F)cccc13)CN(C1CCC1)C2=O [Example 124]

>  <target>
GABAA receptor α2β3γ2 (Homo sapiens, UniProt P18507+P47869)

>  <Relative Potentiation for GABAA2>
0.14

$$$$
>  <compound>
CCN1Cc2nc3c(-c4ccccc4OC)c(F)ccc3c(N)c2C1=O [Example 45]

>  <target>
GABAA receptor α2β3γ2 (Homo sapiens, UniProt P18507+P47869)

>  <Relative Potentiation for GABAA2>
0.26

$$$$

Hi team, please reply with Relative Potentiation for GABAA2 for each item in this list.
1. COc1cccc(Cl)c1-c1cccc2c(N)c3c(nc12)CN(C1CC1)C3=O
2. COc1ccccc1-c1cccc2c(N)c3c(nc12)CN(C1CCC1)C3=O [Example 63]
3. N#Cc1ccccc1-c1cccc2c(N)c3c(nc12)CN(C1CCCC1)C3=O
4. CCN1Cc2nc3c(-c4cc(OC)ccc4F)cccc3c(N)c2C1=O [Example 72]

Found:
[0.052, 0.25, 0.27, 0.12]

Hi team, please reply with Relative Potentiation for GABAA2 for each item in this list.
1. Nc1c2c(nc3c(-c4cc(F)ccc4F)cccc13)CN(C1CC1)C2=O [Example 112]
2. COc1ccncc1-c1c(F)ccc2c(N)c3c(nc12)CN(C1CC1)C3=O [Example 41]
3. COc1ccc(F)cc1-c1c(F)ccc2c(N)c3c(nc12)CN(C1CC1)C3=O [Example 61]

Found:
[0.13, 0.28, 0.23]
